# System: UniProt:P49841
# Sequence (P49841 whole entry, species assumed): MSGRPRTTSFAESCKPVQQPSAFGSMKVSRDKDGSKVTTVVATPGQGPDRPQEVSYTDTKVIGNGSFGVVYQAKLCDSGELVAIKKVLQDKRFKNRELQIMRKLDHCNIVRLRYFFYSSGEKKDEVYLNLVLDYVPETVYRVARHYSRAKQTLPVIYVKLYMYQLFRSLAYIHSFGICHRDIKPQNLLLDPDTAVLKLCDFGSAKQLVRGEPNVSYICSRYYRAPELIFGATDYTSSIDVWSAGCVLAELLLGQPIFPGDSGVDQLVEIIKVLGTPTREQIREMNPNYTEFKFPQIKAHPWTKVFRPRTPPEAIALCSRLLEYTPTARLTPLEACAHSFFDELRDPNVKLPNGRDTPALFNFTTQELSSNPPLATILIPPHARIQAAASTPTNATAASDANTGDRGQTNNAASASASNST
# Protocol Text: In vitro kinase TR-FRET assay GSK3β
# Assay type: biochemical
# Measurement Conditions: enzyme 0.6 nM, ATP 7.6 μM
Recorded IC50, one value per entry.

{"Compound": "CC(C)NC(=O)O[C@@H]1CC[C@H](c2cc(Nc3ccc(Cl)c4c3CCCS4(=O)=O)n[nH]2)C1 [Example 58]", "IC50": "500 to 1000 nM"}
{"Compound": "CC(C)(C)NC(=O)O[C@@H]1CC[C@H](c2cc(Nc3nccc4c3CCS4(=O)=O)n[nH]2)C1 [Example 68]", "IC50": "50 to 500 nM"}
{"Compound": "CC(C)NC(=O)O[C@@H]1CC[C@H](c2cc(Nc3ccc4c(c3)S(=O)(=O)CC4)n[nH]2)C1 [Example 19]", "IC50": "50 to 500 nM"}
